- method_notes: MTT assay, cell viability
- Assay type: cell-based
- experimental_conditions: African green monkey, Vero cells
value_type: CC50 (µM)
Field format: number, assumed µM, no unit text.

Specify CC50 for OCc1ccc(-c2nnc(-c3cccs3)o2)o1 [A5B4c] and stop. 316

Specify CC50 for COc1cc(-c2nnc(-c3cccs3)o2)ccc1O [A1B4c] and stop. 90.8

* * *

- Test system: T. cruzi Dm28c epimastigotes
- method_notes: Beta-galactosidase assay, epimastigotes
- Format: cell-based, Trypanosoma cruzi
- experimental_conditions: Dm28c strain expressing β-galactosidase; read-out: IC50 ± SD Epimastigotes
value_type: IC50 (µM)
Field format: number, assumed µM, no unit text.

Specify IC50 for `COc1cc(-c2nnc(-c3cccs3)o2)ccc1O` and stop. 8.13

* * *

- system: TcBDF3 (Trypanosoma cruzi, UniProt Q4DXV1)
- Sequence (Q4DXV1 entry or part of it): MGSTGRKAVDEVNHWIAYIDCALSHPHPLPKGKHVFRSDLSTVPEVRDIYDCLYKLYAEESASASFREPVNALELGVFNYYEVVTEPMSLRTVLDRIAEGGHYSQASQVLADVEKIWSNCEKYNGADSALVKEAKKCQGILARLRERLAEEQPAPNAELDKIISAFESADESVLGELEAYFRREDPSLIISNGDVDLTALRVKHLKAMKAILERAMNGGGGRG
- method_notes: Thermal shift assay (DSF), dissociation constants
- Format: binding
- experimental_conditions: full-length TcBDF3; SD from three independent experiments
Form field: Kd (one value per entry).

Consider the following illustrative entries.
[[record]]
compound = "COc1cc(-c2nnc(-c3cccs3)o2)ccc1O [A1B4c]"
result = "4 µM"

[[record]]
compound = "OCc1ccc(-c2nnc(-c3cccs3)o2)o1 [A5B4c]"
result = "4.8 µM"


Now, please, on to the next compound.
Specify Kd for O=C(N/N=C/c1ccc(CO)o1)c1cccs1 [A5B4] and stop. 136 µM
